src = paper PMC5761851

target: CSK (Homo sapiens); construct: purchased Eurofins Pharma Discovery Services (KinaseProfiler; Cerep BioPrint panel); assay: kinase selectivity panel; assay type: biochemical; settings: read-out: percentage of control activity (POC), CSK
Sequence (P41240 whole entry): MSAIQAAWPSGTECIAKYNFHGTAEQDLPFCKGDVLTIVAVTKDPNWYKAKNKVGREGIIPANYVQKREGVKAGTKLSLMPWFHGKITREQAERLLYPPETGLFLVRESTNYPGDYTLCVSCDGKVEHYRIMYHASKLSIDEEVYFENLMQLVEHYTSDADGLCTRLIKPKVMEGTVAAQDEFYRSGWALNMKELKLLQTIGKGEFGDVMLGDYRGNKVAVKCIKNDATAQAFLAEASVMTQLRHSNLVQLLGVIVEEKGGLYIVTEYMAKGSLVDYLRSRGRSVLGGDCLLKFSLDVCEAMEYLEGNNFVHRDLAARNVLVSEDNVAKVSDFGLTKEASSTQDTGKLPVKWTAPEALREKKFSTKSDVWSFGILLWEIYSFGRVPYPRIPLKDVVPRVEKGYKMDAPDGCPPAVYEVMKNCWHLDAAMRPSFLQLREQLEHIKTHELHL
reportedProperty: remaining activity at 10 µM (%)
# output: bare number, implied unit %

Answered cases to consult:
Problem: Query the reported remaining activity at 10 µM for CSK (Homo sapiens); item: Cc1ccc(C(=O)NCC2CC2)cc1-c1ccc2c(c1)NC(=O)C21CCCC1
Result: 107

Problem: Query the reported remaining activity at 10 µM for CSK (Homo sapiens); item: CS(=O)(=O)N1CCN(c2ccc(Nc3ncc(C(N)=O)c(NC4CC4)n3)cc2)CC1
Result: 74

Problem: Query the reported remaining activity at 10 µM for CSK (Homo sapiens); item: Cn1cc(-c2cccc(-c3nc(C(=O)NC4C5CC6CC4CC(O)(C6)C5)c(N)nc3N)c2)cn1 (centres unmarked)
Result: 94

---
Problem: Query the reported remaining activity at 10 µM for CSK (Homo sapiens); item: COc1c(NC(=O)c2ccc(C)c(-c3nnc4c(NCC(C)(C)C)nccn34)c2)cc(C(C)(C)C)cc1NS(C)(=O)=O [compound 7, reference compound]
Result: 88

Problem: Query the reported remaining activity at 10 µM for CSK (Homo sapiens); item: CC(C)(C)N1CCC(c2cc(-c3ccc(F)cc3Cl)c3cc[n+]([O-])c(-c4c(Cl)cccc4Cl)c3n2)CC1
Result: 95
